Origin of values: patent US20230080224A1

- testedTarget: T1, human ALPPL2 (recombinant protein) (human, UniProt P10696 20-503, limits assumed)
- T1 construct: biotinylated where captured on streptavidin
- T1 sequence (P10696 20-503 limits assumed): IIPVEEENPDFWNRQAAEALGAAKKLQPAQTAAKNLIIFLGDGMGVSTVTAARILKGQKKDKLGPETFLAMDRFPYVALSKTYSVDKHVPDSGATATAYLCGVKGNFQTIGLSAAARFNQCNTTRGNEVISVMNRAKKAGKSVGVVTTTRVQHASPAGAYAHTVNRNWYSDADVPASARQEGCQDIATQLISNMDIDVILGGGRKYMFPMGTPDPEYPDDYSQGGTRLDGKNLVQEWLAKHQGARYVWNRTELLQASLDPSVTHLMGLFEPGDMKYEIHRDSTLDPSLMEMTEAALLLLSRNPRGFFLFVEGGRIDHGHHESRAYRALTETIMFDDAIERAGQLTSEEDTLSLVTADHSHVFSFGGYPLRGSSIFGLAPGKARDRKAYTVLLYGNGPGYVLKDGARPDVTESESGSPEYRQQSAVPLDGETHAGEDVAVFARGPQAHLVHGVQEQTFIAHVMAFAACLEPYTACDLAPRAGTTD
- protocolDetails: screen of rabbit B-cell clones by ELISA and FACS
measureName: binding result

AB1C39 (antibody, V domains shown, Rabbit antibody cloned from a single B cell) VH: QSLEESGGDLVKPGASLTLTCTASGFSFSSSYYMCWVRQAPGKGLEWIACIYAGSSGGTYYASWAKGRFTISKTSSTTVTLQMTSLTAADTATYFCARAFSYYYSDGYTGYAYGLWGPGTLVTVSS VL: DIVMTQTPASVEAAVGGTVTIKCQASQSISSYLAWYQQKPGQPPKLLIYRASTLASGVPSRFKGSGSGTQFTLTISDLECADAATYYCQGAYYSSSSSYGFGGGTEVVVK :: binds
AB2C127 (antibody, V domains shown, Rabbit antibody cloned from a single B cell) VH: QSLEESGGDLVKPGASLTLTCTASGFSFNSYYMCWVRQAPGKGLEWIACISGGSSDNTYYASWAKGRFTTSKTSSTTVTLQMTSLTAADTATYFCARDIPRSGYFGCDLWGPGTLVTVSS VL: VVMTQTPASVSEPVGGTVTIKCQASQNIYSNLAWYQQKPGQRPKLLIYGASNLESGVPSRFKGSGSGTEYTLTISNLECADAATYYCQSTVYNSNYANTFGGGTEVVVK :: binds
AB2C102 (antibody, V domains shown, Rabbit antibody cloned from a single B cell) VH: QQQLEESGGDLVQPGASLTLTCTASGFSFNSNYWMCWGRQAPGKGLEWIGCILFGNTDTYYANWAKGRFTISKTSSTTVTLQMTSLTAADTATYFCARSVSGVGSAWNLWGPGTLVTVSS VL: IVMTQTPSSKSVPVGDTVTINCQASESVYNNNHLAWYQQKPGQSPKLLIYLASILDSGVPSRFKGSGSGTQFTLTISDVVCDDAATYYCAGYKGITIDGSAFGGGTELVVK :: binds
